# Assay type: in vivo
# experimental context: human, plasma, oral, C12hr, phenotypic mean (±95% CI), All (N=147); variant haplotype (CGT)

[
  {
    "entry smiles": "COc1c(C)c2c(c(O)c1C/C=C(\\C)CCC(=O)O)C(=O)OC2",
    "unit string": "ng/mL",
    "concentration at 12 h": 1010
  }
]

---

# assay protocol: Mycophenolic acid pharmacokinetic parameters by individual ABCC2 SNP genotype
# Type: in vivo
# experimental context: human, plasma, oral, Mycophenolic acid Clearance, mean, ABCC2 −24C>T (rs717620) All, N=147

[
  {
    "molecule": "COc1c(C)c2c(c(O)c1C/C=C(\\C)CCC(=O)O)C(=O)OC2 [Mycophenolic acid, mycophenolic acid]",
    "clearance / mL/min": 266
  }
]

---

# Format: in vivo
# experimental context: human, plasma, oral, C12hr, phenotypic mean (±95% CI), Tacrolimus Group (n=67); wildtype haplotype (CGC)
readout name: concentration at 12 h (ng/mL)

[
  {
    "entry smiles": "COc1c(C)c2c(c(O)c1C/C=C(\\C)CCC(=O)O)C(=O)OC2",
    "readout name": "concentration at 12 h",
    "unit string": "ng/mL",
    "numeric result": 2250
  }
]

---

# Assay type: in vivo, human
# experimental context: human, plasma, oral, Mycophenolic acid AUC6-12hr, All (N=147); mean ± SD

[
  {
    "entry smiles": "COc1c(C)c2c(c(O)c1C/C=C(\\C)CCC(=O)O)C(=O)OC2",
    "AUC": "19100 ng·h/mL"
  }
]

---

# assay protocol: Mycophenolic acid pharmacokinetic parameters by individual ABCC2 SNP genotype
# Assay type: in vivo
# experimental context: human, plasma, oral, Mycophenolic acid AUC0-12hr, mean, ABCC2 3972 C>T (rs 3740066) All, N=146
readout name: AUC(0-t) (ng·h/mL)

[
  {
    "compound": "COc1c(C)c2c(c(O)c1C/C=C(\\C)CCC(=O)O)C(=O)OC2 [Mycophenolic acid, mycophenolic acid]",
    "numeric result": 53400
  }
]

---

# Format: in vivo
# experimental context: human, plasma, oral, C12hr, phenotypic mean (±95% CI), Cyclosporine Group (n=80); variant haplotype (CGT)

[
  {
    "entry smiles": "COc1c(C)c2c(c(O)c1C/C=C(\\C)CCC(=O)O)C(=O)OC2",
    "concentration at 12 h (ng/mL)": 783
  }
]

---

# Assay type: in vivo, human
# experimental context: human, plasma, oral, Mycophenolic acid AUC0-12hr, Tacrolimus Group (n=67); mean ± SD

[
  {
    "entry smiles": "COc1c(C)c2c(c(O)c1C/C=C(\\C)CCC(=O)O)C(=O)OC2",
    "AUC(0-t)": "68900 ng·h/mL"
  }
]

---

# Assay type: in vivo
# experimental context: human, plasma, oral, C12hr, phenotypic mean (±95% CI), Tacrolimus Group (n=67); variant haplotype (CGT)

[
  {
    "entry smiles": "COc1c(C)c2c(c(O)c1C/C=C(\\C)CCC(=O)O)C(=O)OC2",
    "unit string": "ng/mL",
    "concentration at 12 h": 1330
  }
]

---

# Format: in vivo
# experimental context: human, plasma, oral, C12hr, phenotypic mean (±95% CI), Cyclosporine Group (n=80); wildtype haplotype (CGC)

[
  {
    "entry smiles": "COc1c(C)c2c(c(O)c1C/C=C(\\C)CCC(=O)O)C(=O)OC2",
    "concentration at 12 h / ng/mL": 965
  }
]

---

# assay protocol: Mycophenolic acid pharmacokinetic parameters by individual ABCC2 SNP genotype
# Assay type: in vivo
# experimental context: human, plasma, oral, Mycophenolic acid AUC0-12hr, mean, ABCC2 1249 G>A (rs2273697) All, N=147

[
  {
    "compound": "COc1c(C)c2c(c(O)c1C/C=C(\\C)CCC(=O)O)C(=O)OC2 [Mycophenolic acid, mycophenolic acid]",
    "AUC(0-t) (ng·h/mL)": 53600
  }
]

---

# Assay type: in vivo, human
# experimental context: human, plasma, oral, Mycophenolic acid AUC6-12hr, Tacrolimus Group (n=67); mean ± SD
readout name: AUC (ng·h/mL)

[
  {
    "molecule": "COc1c(C)c2c(c(O)c1C/C=C(\\C)CCC(=O)O)C(=O)OC2 [Mycophenolic acid, mycophenolic acid]",
    "readout name": "AUC",
    "numeric result": 26200
  }
]

---

# experimental context: human, in vivo, oral

[
  {
    "compound": "C=CC[C@@H]1/C=C(\\C)C[C@H](C)C[C@H](OC)[C@H]2O[C@@](O)(C(=O)C(=O)N3CCCC[C@H]3C(=O)O[C@H](/C(C)=C/[C@@H]3CC[C@@H](O)[C@H](OC)C3)[C@H](C)[C@@H](O)CC1=O)[C@H](C)C[C@@H]2OC [Tacrolimus, tacrolimus]",
    "concentration at 0 h, ng/mL": 7.2
  }
]

---

# Type: in vivo
# experimental context: human, plasma, oral, C12hr, phenotypic mean (±95% CI), All (N=147); wildtype haplotype (CGC)

[
  {
    "molecule": "COc1c(C)c2c(c(O)c1C/C=C(\\C)CCC(=O)O)C(=O)OC2 [Mycophenolic acid, mycophenolic acid]",
    "concentration at 12 h, ng/mL": 1630
  }
]

---

# Format: in vivo, human
# experimental context: human, plasma, oral, Mycophenolic acid AUC6-12hr, Cyclosporine Group (n=80); mean ± SD
readout name: AUC

[
  {
    "entry smiles": "COc1c(C)c2c(c(O)c1C/C=C(\\C)CCC(=O)O)C(=O)OC2",
    "result": "13100 ng·h/mL"
  }
]

---

# assay protocol: Mycophenolic acid pharmacokinetic parameters by individual ABCC2 SNP genotype
# Format: in vivo
# experimental context: human, plasma, oral, Mycophenolic acid Clearance, mean, ABCC2 3972 C>T (rs 3740066) All, N=146

[
  {
    "compound": "COc1c(C)c2c(c(O)c1C/C=C(\\C)CCC(=O)O)C(=O)OC2 [Mycophenolic acid, mycophenolic acid]",
    "clearance (mL/min)": 268
  }
]
